Target: HLA-A*02:12
Assay: IEDB peptide-MHC binding, purified MHC/direct/fluorescence; filed as Kd, often an IC50 or EC50 that approximates it; bounds were set here for any values at or beyond the usual limits of such assays
Settings: source organism: Campylobacter jejuni subsp. jejuni 81116
pKd: −log10 of the molar value.
Assay Metric: pKd

Query string: Could you share which pKd value was measured for `YTNYPFLFF` ?
Result string: ≤ 4.70

====

Target: HLA-B*58:01
Assay: IEDB peptide-MHC binding, purified MHC/direct/fluorescence; filed as Kd, often an IC50 or EC50 that approximates it; bounds were set here for any values at or beyond the usual limits of such assays
Conditions: source organism: Mammarenavirus machupoense
Assay Metric: Kd (nM)
Could you give me the number in nM? Just the number is fine.

Query string: Could you share which Kd value was measured for `RSLKAFFSW` ?
Result string: 29.4

====

Molecular target: HLA-A*29:02
Experiment: IEDB peptide-MHC binding, purified MHC/competitive/fluorescence; bounds were set here for any values at or beyond the usual limits of such assays
Settings: source organism: Homo sapiens
pIC50: −log10 of the molar value.
Assay Metric: pIC50

Query string: Could you share which pIC50 value was measured for `LPSCPTNFCIF` ?
Result string: ≤ 4.70

====

Target: HLA-A*02:19
Assay: IEDB peptide-MHC binding, purified MHC/direct/fluorescence; filed as Kd, often an IC50 or EC50 that approximates it; bounds were set here for any values at or beyond the usual limits of such assays
Conditions: source organism: Campylobacter jejuni subsp. jejuni 81116
pKd: −log10 of the molar value.
Assay Metric: pKd

Query string: Could you share which pKd value was measured for `YTNYPFLFF` ?
Result string: ≤ 4.70

====

Target: HLA-A*03:01
Assay: IEDB peptide-MHC binding, purified MHC/direct/fluorescence; filed as Kd, often an IC50 or EC50 that approximates it; bounds were set here for any values at or beyond the usual limits of such assays
Details: source organism: Vibrio parahaemolyticus AQ3810
pKd: −log10 of the molar value.
Assay Metric: pKd

Query string: Could you share which pKd value was measured for `HQFTSNPEV` ?
Result string: ≤ 4.70

====

Target: HLA-B*58:01
Test: IEDB peptide-MHC binding, purified MHC/direct/fluorescence; filed as Kd, often an IC50 or EC50 that approximates it; bounds were set here for any values at or beyond the usual limits of such assays
Details: source organism: Vibrio parahaemolyticus
Assay Metric: pKd
To interpret pKd, take it as minus log10 of a concentration measured in moles per litre.

Query string: Item: `RSTLANGWY` Test system: HLA-B*58:01 Read-out: pKd Value: ?
Result string: 7.23

====

Molecular target: HLA-B*15:17
Test: IEDB peptide-MHC binding, purified MHC/competitive/fluorescence; filed as Kd, often an IC50 or EC50 that approximates it; bounds were set here for any values at or beyond the usual limits of such assays
Conditions: source organism: Mus musculus
pKd: −log10 of the molar value.
Assay Metric: pKd

Query string: Could you share which pKd value was measured for `VLWKSYPLV` ?
Result string: ≤ 4.70

====

Target: HLA-A*24:02
Assay: IEDB peptide-MHC binding, purified MHC/competitive/radioactivity; filed as Kd, often an IC50 or EC50 that approximates it; bounds were set here for any values at or beyond the usual limits of such assays
Conditions: source organism: SARS coronavirus Tor2
pKd: −log10 of the molar value.
Assay Metric: pKd

Query string: Could you share which pKd value was measured for `ESVKTQFNY` ?
Result string: ≤ 4.11

Query string: Could you share which pKd value was measured for `AWEILKFLI` ?
Result string: 5.53

Query string: Could you share which pKd value was measured for `LYKLMGHFSW` ?
Result string: 7.08

Query string: Could you share which pKd value was measured for `FWITAIYVF` ?
Result string: 6.07

Query string: Could you share which pKd value was measured for `MWLSYFVASF` ?
Result string: 7.81

Query string: Could you share which pKd value was measured for `AYNVVNKGHF` ?
Result string: 6.50

Query string: Could you share which pKd value was measured for `STSQKSIVAY` ?
Result string: ≤ 4.15

Query string: Could you share which pKd value was measured for `GLAAEWVLAY` ?
Result string: ≤ 4.15

Query string: Could you share which pKd value was measured for `GTDSGFAAY` ?
Result string: ≤ 4.11

Query string: Could you share which pKd value was measured for `ASEFSSLPSY` ?
Result string: ≤ 4.15

Query string: Could you share which pKd value was measured for `LMANLAPHL` ?
Result string: ≤ 4.51

Query string: Could you share which pKd value was measured for `LTALRLCAY` ?
Result string: ≤ 4.45

Query string: Could you share which pKd value was measured for `FIDTIKSLDY` ?
Result string: ≤ 4.15

====

Biological target: HLA-B*18:01
Assay: IEDB peptide-MHC binding, purified MHC/competitive/fluorescence; filed as Kd, often an IC50 or EC50 that approximates it; bounds were set here for any values at or beyond the usual limits of such assays
Conditions: source organism: Orthohantavirus puumalaense
Assay Metric: Kd

Query string: Could you share which Kd value was measured for `IILKALYML` ?
Result string: ≥ 20 µM

====

Please respond with reported Kd for every item in the list.
Target: HLA-A*23:01
Assay: IEDB peptide-MHC binding, purified MHC/competitive/radioactivity; filed as Kd, often an IC50 or EC50 that approximates it; bounds were set here for any values at or beyond the usual limits of such assays
Conditions: source organism: Mammarenavirus lassaense
Could you give me the number in nM? Just the number is fine.

Query string: Could you share which Kd value was measured for `IQNKLSSTF` ?
Result string: 345

Query string: Could you share which Kd value was measured for `VEIALYQPI` ?
Result string: 1480

====

Target: HLA-A*01:01
Assay: IEDB peptide-MHC binding, purified MHC/competitive/fluorescence; filed as Kd, often an IC50 or EC50 that approximates it; bounds were set here for any values at or beyond the usual limits of such assays
Details: source organism: Vibrio parahaemolyticus AQ3810
Assay Metric: Kd

Query string: Could you share which Kd value was measured for `HQFTSNPEV` ?
Result string: ≥ 5 µM

====

Target: HLA-B*18:01
Test: IEDB peptide-MHC binding, purified MHC/competitive/fluorescence; bounds were set here for any values at or beyond the usual limits of such assays
Conditions: source organism: Homo sapiens
Assay Metric: IC50

Query string: Item: `LPSCPTNFCIF` Test system: HLA-B*18:01 Read-out: IC50 Value: ?
Result string: ≥ 20 µM

====

Molecular target: HLA-B*57:01
Assay: IEDB peptide-MHC binding, purified MHC/direct/fluorescence; filed as Kd, often an IC50 or EC50 that approximates it; bounds were set here for any values at or beyond the usual limits of such assays
Settings: source organism: Vibrio vulnificus YJ016
Assay Metric: Kd

Query string: Could you share which Kd value was measured for `IVAQGIAAL` ?
Result string: ≥ 20 µM

====

Target: HLA-A*30:02
Assay: IEDB peptide-MHC binding, purified MHC/competitive/radioactivity; filed as Kd, often an IC50 or EC50 that approximates it; bounds were set here for any values at or beyond the usual limits of such assays
Conditions: source organism: Mammarenavirus lassaense
Assay Metric: Kd (µM)
Could you give me the number in µM? Just the number is fine.

Query string: Could you share which Kd value was measured for `AAHSARPPPY` ?
Result string: 4.57

====

Target: HLA-B*44:03
Test: IEDB peptide-MHC binding, purified MHC/competitive/radioactivity; filed as Kd, often an IC50 or EC50 that approximates it; bounds were set here for any values at or beyond the usual limits of such assays
Settings: source organism: SARS coronavirus Tor2
Assay Metric: log10(Kd) (log10 of the value in nM)
Lab note - Kd converted to log10 from values in nM.

Query string: Item: `QELGHEDLM` Test system: HLA-B*44:03 Read-out: log10(Kd) Value: ?
Result string: 3.57

Query string: Item: `KDCVMYASAL` Test system: HLA-B*44:03 Read-out: log10(Kd) Value: ?
Result string: 4.08

Query string: Item: `SEYKGPVTDV` Test system: HLA-B*44:03 Read-out: log10(Kd) Value: ?
Result string: 2.90

Query string: Item: `REFLTRNPAW` Test system: HLA-B*44:03 Read-out: log10(Kd) Value: ?
Result string: 0.77

Query string: Item: `QEAYEQAVA` Test system: HLA-B*44:03 Read-out: log10(Kd) Value: ?
Result string: 3.84

Query string: Item: `STFVSAARQG` Test system: HLA-B*44:03 Read-out: log10(Kd) Value: ?
Result string: 2.60

Query string: Item: `AEGSRGGSQA` Test system: HLA-B*44:03 Read-out: log10(Kd) Value: ?
Result string: 4.16

Query string: Item: `YENAFLPFT` Test system: HLA-B*44:03 Read-out: log10(Kd) Value: ?
Result string: 2.93

Query string: Item: `AEAAVKPLL` Test system: HLA-B*44:03 Read-out: log10(Kd) Value: ?
Result string: 1.73

Query string: Item: `DEDDSEPVL` Test system: HLA-B*44:03 Read-out: log10(Kd) Value: ?
Result string: 4.20

Query string: Item: `YEQVVMDYL` Test system: HLA-B*44:03 Read-out: log10(Kd) Value: ?
Result string: 2.47

Query string: Item: `AEVVKLPSRY` Test system: HLA-B*44:03 Read-out: log10(Kd) Value: ?
Result string: 1.88
